Biological target: gp41 of HIV-1 strain HXB2D with mutation V38A (HIV-1 strain HXB2D, UniProt P04578)
Assay: cell-based or functional assay
Starred links: 1 amine or outer side, 2 acyl side, 3 side chain; linkers in the order of their positions; H or OH if unused. Positions of bridges follow the written chain, without caps; N, C: chain ends. Non-standard residues stand in square brackets, D forms with d. pXylylene = c1cc(C[*:2])ccc1C[*:1]; Suc = O=C(CCC(=O)[*:2])[*:1]; B1 = not defined here
METRIC: fold change in EC50, HIV-HXB2D V38A mutant (fold)
Respond with the bare value in fold.

Illustrative cases are given below, each with its answer.
INSERT INTO results (binder, reported_result) VALUES
  ('Ac-ACYAACIEALIRAAQEQQEKNEAALR-NH2 (linker 2-6 via 2,7‑dimethylnaphthyl) [peptide 66]', 66),
  ('Ac-ACYLACIEALIRKAQEQQEKNEAALR-NH2 (linker 2-6 via B1; reading uncertain) [peptide 48]', 10),
  ('Ac-ANYLALIEELIRAAQEQQEKNEAALR-NH2 [peptide 10]', 50),
  ('Ac-ACYAA[dC]IEALIRAAQEQQEKNEAALR-NH2 (linker 2-6 via pXylylene; not fully specified) [peptide 83]', 6);

### Prompt What value of fold change in EC50, HIV-HXB2D V38A mutant has been reported for the following binder? Suc-ECYLRCIEELIRKAQEQQEKNEAALR-NH2 (linker 2-6 via B1; reading uncertain) [peptide 29]
### Response 7
